// data source = patent US9187496B2

Would you mind telling me the reported CC50 at 72 h of each entry?
Assay: Cytotoxicity evaluation in luciferase replicon cells (Cell Titer 96 AQueous One)
Format: cell-based, human
Details: human; Table 1B, cellular viability

Return reported CC50 at 72 h; argument: COC(=O)N[C@H](C(=O)N1CCC[C@H]1c1nc2ccc(-c3csc4c(-c5ccc6nc([C@@H]7CCCN7C(=O)[C@H](NC(=O)OC)c7ccccc7)[nH]c6c5)csc34)cc2[nH]1)C(C)C [Compound A208] > 75 µM

Return reported CC50 at 72 h; argument: COC(=O)N[C@H](C(=O)N1CCC[C@H]1c1ncc(-c2ccc(-c3csc4c(-c5ccc6[nH]c([C@@H]7CCCN7C(=O)[C@H](NC(=O)OC)c7ccccc7)nc6c5)csc34)cc2)[nH]1)C(C)C [Compound A172] > 75 µM

Return reported CC50 at 72 h; argument: COC(=O)N[C@H](C(=O)N1CCC[C@H]1c1ncc(-c2ccc(-c3csc4c(-c5cnc([C@@H]6CCCN6C(=O)[C@H](NC(=O)OC)c6ccccc6)[nH]5)csc34)cc2)[nH]1)C(C)C [Compound A200] > 75 µM

Return reported CC50 at 72 h; argument: COC(=O)N[C@H](C(=O)N1CCC[C@H]1c1ncc(-c2ccc(-c3csc4c(-c5ccc6[nH]c([C@@H]7CCCN7C(=O)[C@@H](NC(=O)OC)C(C)C)nc6c5)csc34)cc2)[nH]1)C(C)C [Compound A171] > 75 µM

Return reported CC50 at 72 h; argument: COC(=O)N[C@H](C(=O)N1CCC[C@H]1c1ncc(-c2ccc(-c3cc4sc(-c5cnc([C@@H]6CCCN6C(=O)[C@@H](NC(=O)OC)C(C)C)[nH]5)cc4s3)cc2)[nH]1)C(C)C [Compound A126] > 75 µM

Return reported CC50 at 72 h; argument: COC(=O)NC(C(=O)N1CCCC1c1ncc(-c2cc3sc(-c4ccc5[nH]c(C6CCCN6C(=O)C(NC(=O)OC)C(C)C)nc5c4)cc3s2)[nH]1)C(C)C (stereo in doubt) [Compound A176] 10 to 75 µM

Return reported CC50 at 72 h; argument: COC(=O)N[C@H](C(=O)N1CCC[C@H]1c1ncc(-c2ccc(-c3csc4c(-c5cnc([C@@H]6CCCN6C(=O)[C@@H](NC(=O)OC)C(C)C)[nH]5)csc34)cc2)[nH]1)C(C)C [Compound A15] 10 to 75 µM

Return reported CC50 at 72 h; argument: COC(=O)N[C@H](C(=O)N1CCC[C@H]1c1ncc(-c2ccc(-c3csc4c(-c5ccc(-c6cnc([C@@H]7CCCN7C(=O)[C@@H](NC(=O)OC)C(C)C)[nH]6)cc5)csc34)cc2)[nH]1)C(C)C [Compound A86] 10 to 75 µM

Return reported CC50 at 72 h; argument: COC(=O)N[C@H](C(=O)N1CCCC1c1nc(-c2cc3sc(-c4ccc(-c5cnc([C@@H]6CCCN6C(=O)[C@@H](c6ccccc6)N6CCCCC6)[nH]5)cc4)cc3o2)c[nH]1)C(C)C (stereo partly drawn) [Compound A212] 10 to 75 µM

---

System: Huh-7 cells containing HCV Con1 subgenomic replicon (GS4.1 cells)
Assay: HCV replicon assay (NS5A ELISA)
Type: cell-based
Details: GS4.1 cells, 72 hrs, NS5A ELISA; read-out: EC50
pEC50: −log10 of the molar value.
measure: pEC50

Return reported pEC50; argument: COC(=O)N[C@@H](C(=O)N1CCC[C@H]1C(=O)Nc1ccc(C#Cc2cn3cc(NC(=O)[C@@H]4CCCN4C(=O)[C@H](NC(=O)OC)c4ccccc4)nc3s2)cc1)c1ccccc1 [A80] > 9.00

Return reported pEC50; argument: COC(=O)N[C@H](C(=O)N1CCC[C@H]1c1ncc(-c2ccc(-c3cn4cc(NC(=O)[C@@H]5CCCN5)nc4s3)cc2)[nH]1)C(C)C [A150] 7.00 to 8.00

Return reported pEC50; argument: COC(=O)N[C@H](C(=O)N1CCC[C@H]1c1ncc(-c2ccc(-c3cn4cc(NC(=O)[C@@H]5CCCN5C(=O)[C@H](NC(=O)OCC(C)C)c5ccccc5)nc4s3)cc2)[nH]1)C(C)C [A57] > 9.00

Return reported pEC50; argument: COC(=O)N[C@@H](C(=O)N1CCC[C@H]1C(=O)Nc1ccc(-c2cn3cc(NC(=O)[C@@H]4CCCN4C(=O)[C@H](NC(=O)OC)c4ccccc4)nc3s2)cc1)c1ccccc1 [A79] > 9.00

Return reported pEC50; argument: COC(=O)N[C@H](C(=O)N1CCCC1c1ncc(-c2ccc(-c3csc4c(-c5cnc(C6CCCN6C(=O)OC(C)(C)C)[nH]5)csc34)cc2)[nH]1)C(C)C (stereo partly drawn) [A151] > 9.00

Return reported pEC50; argument: COC(=O)N[C@H](C(=O)N1CCC[C@H]1C(=O)Nc1ccc(-c2cn3cc(NC(=O)OC(C)(C)C)nc3s2)cc1)C(C)C [A34] 8.00 to 9.00

---

System: H1a-luc or Zluc cells
Assay: Cytotoxicity evaluation in luciferase replicon cells (Cell Titer 96 AQueous One)
Format: cell-based, human
Settings: Table 1B, cellular viability
measure: CC50

Return reported CC50; argument: COC(=O)N[C@H](C(=O)N1CCC[C@H]1c1nc2ccc(-c3csc4c(C#Cc5cnc([C@@H]6CCCN6C(=O)[C@H](NC(=O)OC)c6ccccc6)[nH]5)csc34)cc2[nH]1)C(C)C > 75 µM

---

Would you mind telling me the reported CC50 of each entry?
System: GS4.1 cells
Test: Cytotoxicity evaluation in GS4.1 cells (Cell Titer 96 AQueous One)
Format: cell-based, human
Details: cellular viability

Return reported CC50; argument: COC(=O)N[C@H](C(=O)N1CCCC1c1ncc(-c2ccc(-c3csc4c(-c5cnc(C6CCCN6C(=O)OCc6ccccc6)[nH]5)csc34)cc2)[nH]1)C(C)C (stereo partly drawn) > 75 µM

Return reported CC50; argument: COC(=O)N[C@H](C(=O)N1CCCC1c1ncc(-c2cn3cc(-c4ccc(-c5cnc([C@@H]6CCCN6C(=O)[C@@H](NC(=O)OC)C(C)C)[nH]5)cc4)nc3s2)[nH]1)C(C)C (stereo partly drawn) > 75 µM

Return reported CC50; argument: COC(=O)N[C@H](C(=O)N1CCC[C@H]1c1ncc(-c2ccc(-c3csc4c(-c5cnc([C@@H]6CCCN6C(=O)[C@H](NC(=O)OC(C)(C)C)c6ccccc6)[nH]5)csc34)cc2)[nH]1)C(C)C > 75 µM

Return reported CC50; argument: COC(=O)N[C@H](C(=O)N1CCC[C@H]1C(=O)Nc1ccc(-c2cn3cc(NC(=O)C4CCCN4C(=O)[C@@H](NC(=O)OC)C(C)C)nc3s2)cc1)c1ccccc1 (stereo partly drawn) > 75 µM

Return reported CC50; argument: COC(=O)N[C@H](C(=O)N1CCCC1c1ncc(-c2ccc(-c3cn4c(-c5ccccc5)csc4n3)cc2)[nH]1)C(C)C (stereo partly drawn) 10 to 75 µM

Return reported CC50; argument: COC(=O)N[C@H](C(=O)N1CCC[C@H]1c1ncc(-c2ccc(-c3cn4cc(NC(=O)[C@@H]5CCCN5C(=O)[C@H](NC(=O)OC)c5ccccc5)nc4s3)cc2)[nH]1)C(C)C > 75 µM

Return reported CC50; argument: COC(=O)N[C@H](C(=O)N1CCCC1c1ncc(-c2ccc(-c3csc4c(-c5cnc(C6CCCN6C(=O)[C@@H](NC(=O)OC(C)(C)C)C(C)C)[nH]5)csc34)cc2)[nH]1)C(C)C (stereo partly drawn) > 75 µM

Return reported CC50; argument: CC(C)(C)OC(=O)N[C@@H](C(=O)N1CCC[C@H]1C(=O)Nc1cn2cc(-c3ccccc3)sc2n1)c1ccccc1 > 75 µM

Return reported CC50; argument: CC(C)(C)OC(=O)N1CCCC1c1ncc(-c2ccc(-c3nc4sccn4c3Cl)cc2)[nH]1 (stereo not drawn) > 75 µM

---

Test system: GS4.1 cells
Test: Cytotoxicity evaluation in GS4.1 cells (Cell Titer 96 AQueous One)
Assay type: cell-based, human
Settings: cellular viability
measure: CC50

Return reported CC50; argument: COC(=O)N[C@H](C(=O)N1CCC[C@H]1C(=O)Nc1cn2cc(-c3cccc(NC(=O)[C@@H]4CCCN4C(=O)[C@H](NC(=O)OC)c4ccccc4)c3)sc2n1)C(C)C 10 to 75 µM

Return reported CC50; argument: COC(=O)N[C@H](C(=O)N1CCCC1c1nc(-c2ccc(-c3cn4cc(-c5ccc(-c6cnc([C@@H]7CCCN7C(=O)[C@@H](NC(=O)OC)C(C)C)[nH]6)cc5)sc4n3)cc2)c[nH]1)C(C)C (stereo partly drawn) > 75 µM

Return reported CC50; argument: CC(C)(C)OC(=O)N1CCCC1c1nc(-c2ccc(-c3cn4cc(-c5ccc(-c6cnc([C@@H]7CCCN7C(=O)OC(C)(C)C)[nH]6)cc5)sc4n3)cc2)c[nH]1 (stereo partly drawn) > 75 µM

Return reported CC50; argument: COC(=O)N[C@H](C(=O)N1CCCC1c1ncc(-c2ccc(-c3cn4ccsc4n3)cc2)[nH]1)C(C)C (stereo partly drawn) > 75 µM

Return reported CC50; argument: COC(=O)N[C@H](C(=O)N1CCC[C@H]1c1ncc(-c2ccc(-c3cn4cc(NC(=O)[C@@H]5CCCN5C(=O)[C@H](NC(=O)OC(C)C)c5ccccc5)nc4s3)cc2)[nH]1)C(C)C > 75 µM

Return reported CC50; argument: COC(=O)N[C@H](C(=O)N1CCCC1c1ncc(-c2csc3c(-c4ccc(-c5cnc(C6CCCN6C(=O)[C@@H](NC(=O)OC)C(C)C)[nH]5)cc4)csc23)[nH]1)c1ccccc1 (stereo partly drawn) > 75 µM
